Molecular target: fusion protein PRA
Sequence (chain, as listed by the source): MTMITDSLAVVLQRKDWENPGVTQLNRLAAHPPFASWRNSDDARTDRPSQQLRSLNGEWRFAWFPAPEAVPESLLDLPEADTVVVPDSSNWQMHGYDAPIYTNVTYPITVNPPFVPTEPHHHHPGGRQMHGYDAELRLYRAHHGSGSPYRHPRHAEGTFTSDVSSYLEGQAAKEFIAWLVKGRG
Quick reference: relative cleavage efficiency of the listed items.
assay-metric: relative cleavage efficiency

INSERT INTO assay_data (protein, value) VALUES
  ('OmpT protease variant OmpT D97F (protein) STETLSFTPDNINADISLGTLSGKTKERVYLAEEGGRKVSQLDWKFNNAAIIKGAINWDLMPQISIGAAGWTTLGSRGGNMVDQDWMDSSNPGTWTFESRHPDTQLNYANEFDLNIKGWLLNEPNYRLGLMAGYQESRYSFTARGGSYIYSSEEGFRDDIGSFPNGERAIGYKQRFKMPYIGLTGSYRYEDFELGGTFKYSGWVESSDNDEHYDPGKRITYRSKVKDQNYYSVAVNAGYYVTPNAKVYVEGAWNRVTNKKGNTSLYDHNNNTSDYSKNGAGIENYNFITTAGLKYTF', '3.1%'),
  ('OmpT protease variant OmpT D97H (protein) STETLSFTPDNINADISLGTLSGKTKERVYLAEEGGRKVSQLDWKFNNAAIIKGAINWDLMPQISIGAAGWTTLGSRGGNMVDQDWMDSSNPGTWTHESRHPDTQLNYANEFDLNIKGWLLNEPNYRLGLMAGYQESRYSFTARGGSYIYSSEEGFRDDIGSFPNGERAIGYKQRFKMPYIGLTGSYRYEDFELGGTFKYSGWVESSDNDEHYDPGKRITYRSKVKDQNYYSVAVNAGYYVTPNAKVYVEGAWNRVTNKKGNTSLYDHNNNTSDYSKNGAGIENYNFITTAGLKYTF', '8.4%'),
  ('OmpT protease variant OmpT D97C (protein) STETLSFTPDNINADISLGTLSGKTKERVYLAEEGGRKVSQLDWKFNNAAIIKGAINWDLMPQISIGAAGWTTLGSRGGNMVDQDWMDSSNPGTWTCESRHPDTQLNYANEFDLNIKGWLLNEPNYRLGLMAGYQESRYSFTARGGSYIYSSEEGFRDDIGSFPNGERAIGYKQRFKMPYIGLTGSYRYEDFELGGTFKYSGWVESSDNDEHYDPGKRITYRSKVKDQNYYSVAVNAGYYVTPNAKVYVEGAWNRVTNKKGNTSLYDHNNNTSDYSKNGAGIENYNFITTAGLKYTF', '6.2%');

This collection of values is drawn from patent US20070077617.
